# Tested on: ATP;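 further: ATP exposure 15 min at 22 °C before imaging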
# Protocol notes: switch fluorescence ratio, 500 uM ATP over buffer (Cy3 cluster intensity, sum of 5 cycles each) (fold (ratio)); higher = stronger signal-on switching upon ATP binding; sequences stand for … in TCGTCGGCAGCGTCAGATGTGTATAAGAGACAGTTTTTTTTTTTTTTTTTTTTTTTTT…TC
# Applied conditions: aptamer strand: ATP DNA aptamer (quencher-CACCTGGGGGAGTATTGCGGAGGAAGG + anchor), 100 nM annealed; ATP concentration: 500 uM
The entries below come with measured switch fluorescence ratio values attached.

{"Sequence string": "TTCCGGTAAC", "switch fluorescence ratio": 2.07}
{"Sequence string": "ATACAACCTG", "switch fluorescence ratio": 1.11}
{"Sequence string": "TTAAGTGGAA", "switch fluorescence ratio": 0.997}
{"Sequence string": "AGTTGTCTCT", "switch fluorescence ratio": 0.979}
{"Sequence string": "ATTTGGAAAG", "switch fluorescence ratio": 0.999}
{"Sequence string": "TTGAACGGGT", "switch fluorescence ratio": 1.07}
{"Sequence string": "TGACGTTTTG", "switch fluorescence ratio": 0.979}
{"Sequence string": "GATGGGTCTA", "switch fluorescence ratio": 0.966}
{"Sequence string": "GATTAATGGG", "switch fluorescence ratio": 0.995}
{"Sequence string": "AATTGGATCG", "switch fluorescence ratio": 1.02}
{"Sequence string": "TATCACAGTT", "switch fluorescence ratio": 1.01}
{"Sequence string": "TCCTATTAGG", "switch fluorescence ratio": 0.989}
{"Sequence string": "TTATGATTGT", "switch fluorescence ratio": 1.02}
{"Sequence string": "ATAGTTTTTG", "switch fluorescence ratio": 0.993}
{"Sequence string": "ATGAGTGGTG", "switch fluorescence ratio": 1.02}
{"Sequence string": "TTTATTGGAC", "switch fluorescence ratio": 1.01}
{"Sequence string": "GCTATAGTGG", "switch fluorescence ratio": 1.04}
{"Sequence string": "CATTTGTGGT", "switch fluorescence ratio": 1.02}
{"Sequence string": "ATTGTTACAG", "switch fluorescence ratio": 1.01}
{"Sequence string": "TTTGGTAGAA", "switch fluorescence ratio": 0.996}
{"Sequence string": "TATGGTTTAA", "switch fluorescence ratio": 0.975}
{"Sequence string": "TGCTTAAAGT", "switch fluorescence ratio": 0.981}
{"Sequence string": "GGGGGGAATC", "switch fluorescence ratio": 1.01}
{"Sequence string": "ATGGGGTTGG", "switch fluorescence ratio": 1}
{"Sequence string": "CCTGTTTGTT", "switch fluorescence ratio": 0.967}
{"Sequence string": "GGTCAATTAT", "switch fluorescence ratio": 1.05}
{"Sequence string": "CGGTTTTAAT", "switch fluorescence ratio": 0.996}
{"Sequence string": "CTTGGGGCTT", "switch fluorescence ratio": 0.985}
{"Sequence string": "TTGTGCTGTA", "switch fluorescence ratio": 1.02}
{"Sequence string": "TCGTTATTGG", "switch fluorescence ratio": 0.984}
{"Sequence string": "GCTTTAGTTC", "switch fluorescence ratio": 1.03}
{"Sequence string": "TTCCATTTGC", "switch fluorescence ratio": 1.05}
{"Sequence string": "TATTCTAAAT", "switch fluorescence ratio": 1.01}
{"Sequence string": "TAATAGTGAT", "switch fluorescence ratio": 0.983}
{"Sequence string": "TATTGGGGA", "switch fluorescence ratio": 0.958}
{"Sequence string": "GTTGCGAATT", "switch fluorescence ratio": 0.971}
{"Sequence string": "CGTAGGGTTG", "switch fluorescence ratio": 0.974}
{"Sequence string": "GCATGTCGAT", "switch fluorescence ratio": 1.02}
{"Sequence string": "TGTCCAGCTC", "switch fluorescence ratio": 1.49}
{"Sequence string": "ACTGTACGGC", "switch fluorescence ratio": 1.46}
{"Sequence string": "CGCGGTTGAC", "switch fluorescence ratio": 1.12}
{"Sequence string": "GGGTCTTCGT", "switch fluorescence ratio": 0.968}
{"Sequence string": "TGGGGGGAGA", "switch fluorescence ratio": 1.01}
{"Sequence string": "TTGAAATTGG", "switch fluorescence ratio": 0.99}
{"Sequence string": "TCAGCCGTTT", "switch fluorescence ratio": 1.05}
{"Sequence string": "AGATATTATT", "switch fluorescence ratio": 0.977}
{"Sequence string": "GATTGCCAGG", "switch fluorescence ratio": 1.05}
{"Sequence string": "TTTTTTTCAA", "switch fluorescence ratio": 1.01}
{"Sequence string": "AGTAACCAAA", "switch fluorescence ratio": 1.04}
{"Sequence string": "GATATGGGTG", "switch fluorescence ratio": 1.04}
{"Sequence string": "AGTATTGGGC", "switch fluorescence ratio": 1.01}
{"Sequence string": "TGAAGGGGCC", "switch fluorescence ratio": 2.74}
{"Sequence string": "TCCCTATCAC", "switch fluorescence ratio": 1.1}
{"Sequence string": "AAAATTTTTT", "switch fluorescence ratio": 1.07}
{"Sequence string": "TTATCGTGCG", "switch fluorescence ratio": 0.966}
{"Sequence string": "ATAATCGAGT", "switch fluorescence ratio": 0.984}
{"Sequence string": "GAGGGAGTAT", "switch fluorescence ratio": 0.996}
{"Sequence string": "TTTGGGTCAA", "switch fluorescence ratio": 1.01}
{"Sequence string": "GCTGTCGCTT", "switch fluorescence ratio": 1.03}
{"Sequence string": "GGGGTTTGTC", "switch fluorescence ratio": 0.95}
{"Sequence string": "TGGCGGTGCT", "switch fluorescence ratio": 0.997}
{"Sequence string": "CAGTGAGGTT", "switch fluorescence ratio": 1.02}
{"Sequence string": "TTGGATTTAT", "switch fluorescence ratio": 1.01}
{"Sequence string": "TATCCCGGTG", "switch fluorescence ratio": 1.82}
{"Sequence string": "ATGTGGGTCT", "switch fluorescence ratio": 1.02}
{"Sequence string": "CCAAGTTCTC", "switch fluorescence ratio": 0.972}
{"Sequence string": "ATTGTGGTCA", "switch fluorescence ratio": 0.999}
{"Sequence string": "TCACGGGAAT", "switch fluorescence ratio": 1.02}
{"Sequence string": "GACTGAGTTG", "switch fluorescence ratio": 0.998}
{"Sequence string": "CACGTGGGCA", "switch fluorescence ratio": 1.01}
{"Sequence string": "GTCTTTAACT", "switch fluorescence ratio": 0.982}
{"Sequence string": "TAGAAAGGTC", "switch fluorescence ratio": 1.07}
{"Sequence string": "AATTCAAAAA", "switch fluorescence ratio": 1.02}
{"Sequence string": "GTGGCCATTA", "switch fluorescence ratio": 0.995}
{"Sequence string": "TATAGCCCGT", "switch fluorescence ratio": 1.02}
{"Sequence string": "ATATAGGTA", "switch fluorescence ratio": 1.04}
